SYSTEM UNDER TEST: human mGlu5a receptor (Homo sapiens)
Construct: expressed in transfected cells
Sequence (P41594 21-1180 isoform P41594-2 limits assumed): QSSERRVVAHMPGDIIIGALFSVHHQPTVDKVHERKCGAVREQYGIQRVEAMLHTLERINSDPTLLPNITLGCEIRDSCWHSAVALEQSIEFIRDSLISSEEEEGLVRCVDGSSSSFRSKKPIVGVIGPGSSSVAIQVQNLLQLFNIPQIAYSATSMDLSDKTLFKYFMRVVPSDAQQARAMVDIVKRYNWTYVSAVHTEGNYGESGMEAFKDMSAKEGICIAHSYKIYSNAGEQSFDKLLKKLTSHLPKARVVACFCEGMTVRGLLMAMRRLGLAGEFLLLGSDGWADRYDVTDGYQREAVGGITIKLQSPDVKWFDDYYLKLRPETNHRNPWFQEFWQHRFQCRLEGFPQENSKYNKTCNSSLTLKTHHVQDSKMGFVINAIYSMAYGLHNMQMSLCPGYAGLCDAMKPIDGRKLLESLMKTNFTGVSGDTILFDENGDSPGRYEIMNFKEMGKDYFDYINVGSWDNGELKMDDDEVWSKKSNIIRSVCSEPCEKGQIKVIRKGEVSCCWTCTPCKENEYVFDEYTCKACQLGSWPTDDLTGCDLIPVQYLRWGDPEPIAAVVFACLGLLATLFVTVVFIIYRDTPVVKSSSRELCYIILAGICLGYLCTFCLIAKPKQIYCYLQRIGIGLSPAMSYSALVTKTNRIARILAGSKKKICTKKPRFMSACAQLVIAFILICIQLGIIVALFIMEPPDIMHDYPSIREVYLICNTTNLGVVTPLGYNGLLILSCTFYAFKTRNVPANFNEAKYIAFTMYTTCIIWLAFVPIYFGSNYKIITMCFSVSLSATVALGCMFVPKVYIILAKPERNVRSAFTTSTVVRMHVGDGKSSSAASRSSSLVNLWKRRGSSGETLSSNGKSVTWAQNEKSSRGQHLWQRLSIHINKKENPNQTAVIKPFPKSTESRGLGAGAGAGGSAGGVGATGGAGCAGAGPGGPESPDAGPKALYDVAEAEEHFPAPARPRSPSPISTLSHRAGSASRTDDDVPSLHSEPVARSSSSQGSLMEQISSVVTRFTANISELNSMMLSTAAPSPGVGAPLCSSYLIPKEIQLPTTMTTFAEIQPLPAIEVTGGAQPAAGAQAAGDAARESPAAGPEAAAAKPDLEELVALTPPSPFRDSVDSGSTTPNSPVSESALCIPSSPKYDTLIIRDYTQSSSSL
MEASUREMENT PROTOCOL: Intracellular Ca2+ mobilization assay (mGlu5 PAM)
Format: cell-based
MEASUREMENT PARAMETERS: HEK293, maximal response in % of the maximal stimulatory effect obtained with saturating concentrations of L-glutamate; HEK-293 human mGlu5a cells; read-out: Eff. (%)
MEASUREMENT TYPE: Emax (%)

I = CN(C(=O)c1ccc(C#Cc2ccc(F)cc2)cn1)C1(C)CC1
II = CC(C)(C)NC(=O)c1ncc(C#Cc2cccc(Cl)c2)cn1
Request: Please compare: I and II . Report which one has the smaller Emax value. // output: label of the selected item
Response: I

Reference for the values: patent US8772300B2
